Experimental system: Carbonic anhydrase 2 (Homo sapiens) (UniProt P00918)
Test name: compounds binding carbonic anhydrase 2 – biochemical, small-molecule microarray, Alexa647-labelled CAII, profiling panel (AID 1122)
Study conditions: CAII-A647 binding fluorescence, higher = more signal
Items are presented alongside their recorded composite z-score.
I only need the number, thanks.

Record excerpt, results attached:
{"columns": ["Molecule", "composite z-score"],
 "data": [
  ["O=C1C2C=CC(C(O)c3ccccn3)N(Nc3ccccc3)C2C(=O)N1c1ccccc1 (stereo not drawn)", 0.824],
  ["C=C(CCCC)/C(=C/C[C@H](OC(=O)c1ccncc1)c1ccc(CO)o1)c1cc(C(=O)OC)ccc1OC", 0.609],
  ["COC(=O)[C@@]1(Cc2ccc(F)cc2)[C@H]2c3cc(C(=O)N4CCCC4)n(Cc4ccccc4)c3C[C@H]2CN1C(=O)c1ccccc1", 0.793],
  ["C=C(COC)C(=O)CC[C@H](OC(=O)c1ccccc1-c1ccccc1C(=O)O)c1ccc(OCCO)cc1", 0.425],
  ["COCCOC(=O)N1C(=O)[C@@]2(c3cc(C#CCC(C(=O)OC)C(=O)OC)ccc31)[C@H](c1ccc(OCCO)cc1)N1[C@H](c3ccccc3)[C@H](c3ccccc3)OC(=O)[C@H]1[C@@H]2C(N)=O", 0.57],
  ["CCOC(=O)C[C@H]1[C@H](OC(=O)Cc2ccc3c(c2)OCO3)[C@@H](NC(=O)c2ccccc2)c2cc(OCCCO)ccc2N1C(=O)c1ccccc1", 0.0488]
]}

Determine its reported composite z-score: C=CCOc1ccc([C@@H]2CC=C(C(=O)OCC)[C@H](c3cccc(Br)c3)N2S(=O)(=O)c2ccc(C)cc2)cc1
-0.125

Determine its reported composite z-score: O=C(N1CCOCC1)[C@@]1(CCS(=O)(=O)c2ccccc2)COC(c2ccc(OCCCO)cc2)=N1
0.704

###

Test name: compound effects on lung adenocarcinoma cell viability – A549, calcein-AM fluorescence, 48 h, basal, profiling panel (AID 1162); note: test concentration not given here
Study conditions: higher = more signal
Each entry gets -1 if its z-score stays under 0.2, and 1 if its z-score is 0.2 or above.

Check out these entries, answers already filled in.
{"columns": ["Compound", "Category label"],
 "data": [
  ["COc1cc2c(cc1OC)CN(C(=O)[C@@H]1[C@H]3C(=O)O[C@H](c4ccccc4)[C@H](c4ccccc4)N3[C@H](c3ccc(OCCO)cc3)[C@@]13C(=O)Nc1ccc(C#CCCO)cc13)CC2", -1],
  ["CN1C(=O)C2C=CC(C(O)c3cccc4ccccc34)N(NC(=O)OC(C)(C)C)C2C1=O (centres undefined)", -1],
  ["CN(C)C(=O)[C@@]1(CCC(=O)OC(C)(C)C)COC(c2ccc(OCCCO)cc2)=N1", 1],
  ["C=CC[C@@]1(C(=O)NCC(O)CO)N=C(c2ccc(OCCCO)cc2)O[C@@H]1c1ccccc1 (some centres undefined)", -1],
  ["C=CCNC(=O)[C@H]1[C@@H]2C(=O)O[C@@H](c3ccccc3)[C@@H](c3ccccc3)N2[C@@H](c2ccc(O)cc2)[C@]12C(=O)N(C(=O)OCCOC)c1ccc(C#CC3(O)CCCCCC3)cc12", 1]
]}

Would you say O=C1c2ccccc2[C@](Cc2ccccc2I)(C(=O)NC2CC2)[C@H](c2ccc(CO)cc2)N1Cc1ccccc1Cl shows z-score at minimum 0.2?
-1

Would you say CO[C@H]1O[C@H](CO)[C@@H](OC(=O)Nc2ccc(C(F)(F)F)cc2)[C@H](OC(=O)Nc2ccccc2)[C@H]1OC(=O)Nc1ccccc1 shows z-score at minimum 0.2?
-1

Would you say CCOC(=O)C1=CC[C@@H](c2ccccc2)N(S(=O)(=O)c2ccc(C)cc2)[C@H]1C=C(C)C shows z-score at minimum 0.2?
-1

Would you say O=C1N(CCS(=O)(=O)c2ccccc2)c2ccccc2[C@H]2OC(c3ccc(OCCCO)cc3)=N[C@@]12CCS(=O)(=O)c1ccccc1 shows z-score at minimum 0.2?
1

Would you say COCCOC(=O)N1C(=O)[C@@]2(c3cc(C#CCCO)ccc31)[C@H](C(=O)NC[C@H](O)c1ccccc1)[C@H]1C(=O)O[C@H](c3ccccc3)[C@H](c3ccccc3)N1[C@@H]2c1ccccc1OCCO shows z-score at minimum 0.2?
1

Would you say COC(=O)[C@@]1(Cc2ccc(OC)cc2)[C@H]2c3cc(C(=O)N4CCCC4)n(Cc4ccc(C)o4)c3C[C@H]2CN1C(=O)c1ccccc1 shows z-score at minimum 0.2?
-1

Would you say Cc1cc(C)c(C(O)C2C=CC3C(=O)N(c4ccccc4)C(=O)C3N2Nc2ccccc2)c(C)c1 (centres undefined) shows z-score at minimum 0.2?
1

Would you say CC(C)c1ccc(NN2C(C(O)c3ccccn3)C=CC3C(=O)N(c4ccccc4)C(=O)C32)cc1 (centres undefined) shows z-score at minimum 0.2?
-1

Would you say COc1cc2c(cc1OC)CN(C(=O)[C@@H]1[C@H]3C(=O)O[C@H](c4ccccc4)[C@H](c4ccccc4)N3[C@H](c3ccc(O)cc3)[C@@]13C(=O)Nc1ccc(C#CCNC(N)=O)cc13)CC2 shows z-score at minimum 0.2?
1

###

Test name: probe aEGFR binding to arrayed compounds – biochemical, biotinylated probe, 635/667 nm fluorescence, primary screen (AID 1097);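 note: probe is a biotinylated anti-EGFR antibody binding compounds printed on slides; score combines fluorescence near 667 nm and signal to noise of each spot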
Study conditions: small-molecule microarray, higher = more signal
Classification field. Basis: composite z-score. Definitions: lo (below -0.05), mid (-0.05 to below 0.04), hi (0.04 or more)

Check out these entries, answers already filled in.
{"columns": ["Molecule", "Category label"],
 "data": [
  ["C=CC[C@@]1(C(=O)NCC(O)CO)N=C(c2ccc(OCCCO)cc2)O[C@@H]1c1ccccc1 (some centres undefined)", "hi"],
  ["CC(C)C[C@@H]1NC(=O)[C@@H]2C[C@H](C(=O)NCc3ccc(F)cc3)[C@H](c3ccc(O)cc3)N2C1=O", "lo"],
  ["COC(=O)c1ccc(OC)c(/C=C\\CC(CCc2ccccc2)OC(=O)c2ccncc2)c1 (centres undefined)", "lo"],
  ["COc1cc(NN2C(C(O)c3ccc(I)cc3)C=CC3C(=O)N(C)C(=O)C32)cc(OC)c1OC (centres undefined)", "hi"],
  ["COCCOC(=O)N1C(=O)[C@@]2(c3cc(C#CCNC(N)=O)ccc31)[C@H](c1ccc(OCCO)cc1)N1[C@H](c3ccccc3)[C@H](c3ccccc3)OC(=O)[C@H]1[C@@H]2C(=O)N1CCN(c2ncccn2)CC1", "mid"]
]}

Lab note: which band did CCOC(=O)C1=CC[C@@H](c2ccc(N(CC)CC)cc2)N(S(=O)(=O)c2ccc(C)cc2)[C@H]1c1ccc([N+](=O)[O-])cc1 land in?
lo

Lab note: which band did COc1cc(C(O)C2C=CC3C(=O)N(C)C(=O)C3N2NC(=O)OC(C)(C)C)cc(OC)c1OC (centres undefined) land in?
hi

Lab note: which band did CC(C)NC(=O)[C@@]1(Cc2ccccc2I)c2ccccc2C(=O)N(Cc2ccccc2C(F)(F)F)[C@H]1c1ccc(CO)cc1 land in?
mid

Lab note: which band did CCCC=C(CCC)[C@@H](NS(=O)(=O)c1cccc2cccnc12)c1ccc(C(=O)OC)cc1 land in?
hi

Lab note: which band did CCC[C@@H]1C[C@@]1(CCC)[C@@H](NC(=O)c1ccco1)c1ccc(Cl)cc1 land in?
lo

Lab note: which band did CC[C@@H]1[C@@H]2C3C(=O)N(CC)C(=O)C3CC(=O)[C@@H]2[C@H](c2ccc(C)cc2)N1S(=O)(=O)c1ccc(C)cc1 (some centres undefined) land in?
mid

###

Tested on: Plasmodium falciparum Sir2 (PF13_0152, Sir2A)
Test name: Plasmodium falciparum Sir2A binding compounds – biochemical, small-molecule microarray, 635 nm fluorescence, primary screen (AID 1098);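 note: score merges spot fluorescence intensity with its signal-to-noise ratio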
Study conditions: fluorescence 635 nm, higher = more signal
Classification field. Basis: composite z-score. Definitions: lo: < 0.5; med: ≥ 0.5 and < 1; hi: ≥ 1

Check out these entries, answers already filled in.
{"columns": ["Compound", "Category label"],
 "data": [
  ["O=C(NCc1ccccc1)[C@]1(Cc2ccccc2)N=C(c2ccc(OCCCO)cc2)O[C@@H]1c1ccccc1", "lo"],
  ["COC(=O)[C@@]1(Cc2ccc(OC)cc2)[C@H]2c3cc(C(=O)N4CCCC4)n(CCF)c3C[C@H]2CN1C(=O)c1ccccc1", "hi"],
  ["C=CCC(OC(C)=O)[C@@H]1[C@@H](N(Cc2cccc3ccccc23)C(=O)Cc2ccc(F)cc2)c2cc(OCCCO)ccc2N1C(=O)Cc1ccc(OC)cc1 (some centres undefined)", "lo"],
  ["CCN(CC)c1ccc(N2CC=CC34O[C@@H]5/C=C\\CCCOC(=O)C5[C@H]3C(=O)N(CCCCCCO)[C@@H]4C2=O)cc1 (some centres undefined)", "hi"],
  ["C=CCC(OC(C)=O)[C@@H]1[C@@H](N(Cc2ccc(-c3ccccc3)cc2)C(=O)Cc2ccc(OC)cc2)c2cc(OCCCO)ccc2N1C(=O)c1ccc(-c2ccccc2)cc1 (some centres undefined)", "lo"]
]}

Lab note: which band did CC(C)(C)OC(=O)CC[C@@]1(C(=O)N2CCCCC2)N=C(c2ccc(OCCCO)cc2)O[C@@H]1c1ccccc1CN=[N+]=[N-] land in?
hi

Lab note: which band did COc1ccc(C(=O)Nc2ccc3c(c2)[C@]2(O[C@@H](CCO)[C@H]([Si](C)(C)c4ccc(OC)cc4)[C@H]2C)C(=O)N3Cc2ccccc2)cc1 land in?
med

Lab note: which band did COc1cc2c(cc1OC)CN(C(=O)[C@@H]1[C@H]3C(=O)O[C@H](c4ccccc4)[C@H](c4ccccc4)N3[C@H](c3ccc(O)cc3)[C@@]13C(=O)Nc1ccc(C#CCNC(N)=O)cc13)CC2 land in?
med

Lab note: which band did O=C1c2ccccc2[C@](Cc2ccccc2I)(C(=O)NC2CC2)[C@H](c2ccc(CO)cc2)N1Cc1ccccc1Cl land in?
lo

Lab note: which band did CCCNC(=O)[C@@H]1c2ccccc2C(=O)N(CC23CC4CC(CC(C4)C2)C3)[C@H]1c1ccc(CO)cc1 land in?
hi

Lab note: which band did CCC[C@@H]1C[C@@]1(CCC)[C@@H](NC(=O)c1ccco1)c1ccc(Cl)cc1 land in?
lo
